All figures here come from the RNAGym collection of RNA variant scans (doi:10.1093/molbev/msab373).

B1: Azoarcus group I ribozyme (parent)
chain: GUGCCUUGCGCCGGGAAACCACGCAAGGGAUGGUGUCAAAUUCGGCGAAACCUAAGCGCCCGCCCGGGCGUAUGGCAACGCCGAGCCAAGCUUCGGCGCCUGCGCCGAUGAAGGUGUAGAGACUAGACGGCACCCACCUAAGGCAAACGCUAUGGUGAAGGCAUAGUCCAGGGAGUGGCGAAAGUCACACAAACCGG

# Variants of: B1
# assay text: reverse-splicing fitness (ratio to wild type); higher = more active; in vitro selection; Mg2+ level not given
Lab note: compare reverse-splicing fitness against 0.01. Equal or greater, write true (1). Smaller, write false (0).

mutation: C82A A111G A120U C150A C169G
assigned label: false (0)

mutation: C82G A111U C150A U176C
assigned label: true (1)

mutation: C82G A111C A145C C150A
assigned label: true (1)

mutation: C82A A111G A145C C150A C169A U176G
assigned label: false (0)

mutation: A111U A120C A145U C169U
assigned label: true (1)

mutation: C82G A120C A145G C150U C169U U176G
assigned label: false (0)

## Task Would you say C82G A111G A145G C150G C169G U176C shows reverse-splicing fitness at minimum 0.01?
## Result true (1)

## Task Follow-up item: A111C A120C C150G C169A U176C
## Result false (0)

## Task Follow-up item: C82U A111G A120U C150A C169G U176A
## Result false (0)

## Task Follow-up item: A111C A120C C150G U176A
## Result true (1)

## Task Follow-up item: C82A A111G A120U A145U C150A U176C
## Result false (0)

## Task Follow-up item: A111U A120C A145C C150U
## Result true (1)

## Task Follow-up item: C82U A120G A145G C150G C169A
## Result false (0)

## Task Follow-up item: C82A A111G A120G A145U C169U U176G
## Result false (0)

## Task Follow-up item: C82A A111U A145G C150A C169U U176G
## Result false (0)

## Task Follow-up item: C82G A111C A145C C150U U176C
## Result true (1)

## Task Follow-up item: C82U A111G A120C A145C C150U U176C
## Result true (1)

## Task Follow-up item: C82A A111G A120G A145G C150U U176C
## Result true (1)

## Task Follow-up item: A111C A120U A145U C169G
## Result true (1)

## Task Follow-up item: C82U A120U A145G C169A U176C
## Result false (0)

## Task Follow-up item: A111G C150G U176C
## Result true (1)

## Task Follow-up item: C82U A111U A120C A145G C150U C169U U176A
## Result true (1)

## Task Follow-up item: A111U A120G C150U C169G U176C
## Result true (1)

## Task Follow-up item: A111G A120U C150G C169G U176G
## Result false (0)

## Task Follow-up item: A111U A120U A145U C150A U176A
## Result true (1)

## Task Follow-up item: A120C A145U C150G U176C
## Result true (1)
